Assay: Half-life was determined
Settings: pH 7.4 phosphate buffer at 37 °C
// half-life lookup, one value per entry
Quick reminder: number only, in min, skip the unit.

Observe how each entry below is paired with its result.
CC(C)N[N+]([O-])=N[O-].[Na+] ... 2.3
CCN(CC)/[N+]([O-])=N\[O-].[Na+] ... 2.1
N.N.O=NN(O)S(=O)(=O)O ... 6.8

Could you share which half-life value was measured for [Na+].[Na+].[O-][N+]([O-])=NO [ANGELI'S SALT] ?
2.3

half-life for NCCCNCCCCN(CCCN)/[N+]([O-])=N\O ?
39

----------
# maps each entry to its EC50
Species: Oryctolagus cuniculus
Assay: Vasorelaxant activity against isolated vascular ring preparation from rabbit thoracic aorta
Assay type: functional
Numeric answer only, unit µM assumed.

The examples below pair each entry with its known result.
[Na+].[Na+].[O-][N+]([O-])=NO [ANGELI'S SALT] ... 0.59
CC(C)N[N+]([O-])=N[O-].[Na+] ... 0.45
N.N.O=NN(O)S(=O)(=O)O ... 62
CCN(CC)/[N+]([O-])=N\[O-].[Na+] ... 0.19

Moving on to another molecule below.
// EC50 lookup, key: NCCCNCCCCN(CCCN)/[N+]([O-])=N\O
6.2

----------
Species: Oryctolagus cuniculus
Experiment: Peak relaxation(Rm) of the vascular ring by the compound at highest concentration
Assay type: functional
Listing: Rm of selected molecules
Express it in %; write the number only.

N.N.O=NN(O)S(=O)(=O)O ... 58
[Na+].[Na+].[O-][N+]([O-])=NO [ANGELI'S SALT] ... 74
NCCCNCCCCN(CCCN)/[N+]([O-])=N\O ... 56

Which Rm reading was recorded for the molecule CC(C)N[N+]([O-])=N[O-].[Na+] ?
85

I am curious: what Rm value has been reported for CCN(CC)/[N+]([O-])=N\[O-].[Na+] ?
86

----------
Assay: Rate constant for loss of chromophore
Type: ADME
Reported k values for a set of compounds
Only the number, expressed in s⁻¹, is required.

Reference set, count: 2
N.N.O=NN(O)S(=O)(=O)O ... 0.0017
[Na+].[Na+].[O-][N+]([O-])=NO [ANGELI'S SALT] ... 0.005

Entry under review: CC(C)N[N+]([O-])=N[O-].[Na+] . Reported k?
0.0051

Please look up its k: CCN(CC)/[N+]([O-])=N\[O-].[Na+]
0.0054

// k lookup, key: NCCCNCCCCN(CCCN)/[N+]([O-])=N\O
0.0003
